Source: paper PMC3814719

target_entity: OgpAT (Oceanicola granulosus)
Construct: full-length OgpAT, expressed as GST fusion from pGEX-6P-1 in E. coli BL21(DE3) pLysS, GST cut off with PreScission protease; 206 residues in crystal; monomer; biotinylated for SPR
Sequence (Q2CEE2 whole entry, the tested form may be a part): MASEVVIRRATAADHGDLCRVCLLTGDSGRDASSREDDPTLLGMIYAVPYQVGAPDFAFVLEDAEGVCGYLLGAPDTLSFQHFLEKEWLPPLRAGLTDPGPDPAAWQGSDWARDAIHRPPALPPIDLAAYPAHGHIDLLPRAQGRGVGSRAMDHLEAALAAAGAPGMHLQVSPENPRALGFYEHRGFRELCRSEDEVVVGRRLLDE
method_description: surface plasmon resonance, biotinylated protein on streptavidin chip, […] equilibrium fit
reported_conditions: read-out: OgpAT, wt
value_type: Kd (µM)
Answers are plain numbers, in µM.

Input: GET /values?readout=Kd&item= `CC(=O)SCCNC(=O)CCNC(=O)[C@H](O)C(C)(C)COP(=O)(O)OP(=O)(O)OC[C@H]1O[C@@H](n2cnc3c(N)ncnc32)[C@H](O)[C@@H]1OP(=O)(O)O`
Output: 8.3
